- Tested on: IAR20 PC1 cells
- Experiment notes: Factor-based classification of cell shape phenotype from interference contours (predicted time in culture)
- Parameters: species or system rat
- Particulars: 2 hr exposure; taxanes 6–18 μM, baccatin III 9 μM, colchicine 2 μM
Property name: shift of signature-type (mean predicted time) versus control, in words

CC(=O)O[C@H]1C(=O)[C@]2(C)CC[C@H]3OC[C@@]3(OC(C)=O)[C@H]2[C@H](OC(=O)c2ccccc2)[C@]2(O)C[C@H](OC(=O)[C@H](O)[C@@H](NC(=O)c3ccccc3)c3ccccc3)C(C)=C1C2(C)C = failed to shift
C/C=C(\C)C(=O)N[C@@H](c1ccccc1)[C@@H](O)C(=O)O[C@H]1C[C@@]2(O)[C@@H](OC(=O)c3ccccc3)[C@@H]3[C@]4(OC(C)=O)CO[C@@H]4C[C@H](O)[C@@]3(C)C(=O)[C@H](OC(C)=O)C(=C1C)C2(C)C = failed to shift
CC(=O)O[C@H]1C(=O)[C@@]2(C)[C@H]([C@H](OC(=O)c3ccccc3)[C@]3(O)C[C@H](O)C(C)=C1C3(C)C)[C@]1(OC(C)=O)CO[C@@H]1C[C@@H]2O = failed to shift
